Listed here: items and their measured cell viability.
- Test system: WHIM2 (cells of a triple-negative basal-like breast cancer xenograft);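 further: cells dissociated from PDX tumors propagated in female NSG mouse mammary fat pads, vehicle control 0.1% DMSO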
- EXPERIMENT NOTES: cell viability (% of vehicle); higher = less cytotoxic
- STUDY CONDITIONS: 1 µM; 72 h

{"STRUCTURE STRING": "COC1=C(OC)C(=O)C(CCCCCCCCCCO)=C(C)C1=O", "cell viability": 107}
{"STRUCTURE STRING": "[O-]n1ccccc1=S.[O-]n1ccccc1=S.[Zn+2]", "cell viability": 70.2}

Consider the record given below.
Noted for `CO[C@H]1C[C@@H]2CC[C@@H](C)[C@@](O)(O2)C(=O)C(=O)N2CCCC[C@H]2C(=O)O[C@H]([C@H](C)C[C@@H]2CC[C@@H](OC(=O)C(C)(CO)CO)[C@H](OC)C2)CC(=O)[C@H](C)/C=C(\C)[C@@H](O)[C@@H](OC)C(=O)[C@H](C)C[C@H](C)/C=C/C=C/C=C/1C` : its cell viability reads 80

====

Listed here: items and their measured cell viability.
- Test system: HCI03 (cells of an ER-positive luminal breast cancer xenograft)
- EXPERIMENT NOTES: cell viability (% of vehicle); higher = less cytotoxic
- STUDY CONDITIONS: 10 µM; 72 h
Please give the numeric answer without any surrounding text.

As a guide, the following entries are already answered.
{"COMPOUND": "Cc1cc(C2CCCCC2)n(O)c(=O)c1 [Ciclopirox]", "ASSAY TARGET": "HCI03", "ENDPOINT VALUE": 67.7}
{"COMPOUND": "Cl.Cl.O=C1c2c(O)ccc(O)c2C(=O)c2c(NCCNCCO)ccc(NCCNCCO)c21 [Mitoxantrone HCl]", "ASSAY TARGET": "HCI03", "ENDPOINT VALUE": 111}
{"COMPOUND": "Cl.Cl.Fc1ccc(C(c2ccc(F)cc2)N2CCN(CC=Cc3ccccc3)CC2)cc1 [Flunarizine 2HCl]", "ASSAY TARGET": "HCI03", "ENDPOINT VALUE": 82.4}
{"COMPOUND": "CC(CN1CC(=O)NC(=O)C1)N1CC(=O)NC(=O)C1 (stereo not drawn) [Dexrazoxane]", "ASSAY TARGET": "HCI03", "ENDPOINT VALUE": 148}
{"COMPOUND": "CC12CCC3=C4CCC(=O)C=C4CCC3C1CCC2(O)CC#N (stereo not drawn) [Dienogest]", "ASSAY TARGET": "HCI03", "ENDPOINT VALUE": 124}
{"COMPOUND": "CC12C=CC(=O)C=C1CCC1C3CC(O)C(O)(C(=O)CO)C3(C)CC(O)C12F (stereo not drawn) [Triamcinolone]", "ASSAY TARGET": "HCI03", "ENDPOINT VALUE": 176}
{"COMPOUND": "CC1(C)SC2C(NC(=O)C(NC(=O)N3CCN(S(C)(=O)=O)C3=O)c3ccccc3)C(=O)N2C1C(=O)O.[Na] (stereo not drawn) [Mezlocillin Sodium]", "ASSAY TARGET": "HCI03", "ENDPOINT VALUE": 142}

Record Cc1c(OCC(F)(F)F)ccnc1CS(=O)c1nc2ccccc2[n-]1.[Na+] (stereo not drawn) [Lansoprazole sodium] has HCI03 cell viability equal to 145

====

- Tested on: UCD52 (cells of a triple-negative basal-like breast cancer xenograft)
- EXPERIMENT NOTES: cell viability of combination (% of vehicle); higher = less cytotoxic
- STUDY CONDITIONS: 1 µM; 72 h; partner dose: 10 nM
TEST READOUT: cell viability of combination
Please give the numeric answer without any surrounding text.

{"COMPOUND": "Cc1cn(-c2cc(NC(=O)c3ccc(C)c(Nc4nccc(-c5cccnc5)n4)c3)cc(C(F)(F)F)c2)cn1 [Nilotinib(AMN-107)] + CN(C)C/C=C/C(=O)Nc1cc2c(Nc3ccc(F)c(Cl)c3)ncnc2cc1O[C@H]1CCOC1", "ASSAY TARGET": "UCD52", "cell viability of combination": 56.1}
{"COMPOUND": "O=C(O)CO.[NH2-].[NH2-].[Pt+2] [Nedaplatin] + CN(C)C/C=C/C(=O)Nc1cc2c(Nc3ccc(F)c(Cl)c3)ncnc2cc1O[C@H]1CCOC1", "ASSAY TARGET": "UCD52", "cell viability of combination": 82.6}
{"COMPOUND": "CC(O)C(=O)O.CCOc1ccc2nc3cc(N)ccc3c(N)c2c1.O [Ethacridine lactate monohydrate] + CN(C)C/C=C/C(=O)Nc1cc2c(Nc3ccc(F)c(Cl)c3)ncnc2cc1O[C@H]1CCOC1", "ASSAY TARGET": "UCD52", "cell viability of combination": 70.5}

Noted for CCOc1cc2ncc(C#N)c(Nc3ccc(F)c(Cl)c3)c2cc1NC(=O)C=CCN(C)C [Pelitinib (EKB-569)] + CN(C)C/C=C/C(=O)Nc1cc2c(Nc3ccc(F)c(Cl)c3)ncnc2cc1O[C@H]1CCOC1 : its cell viability of combination reads 28.6

====

Listed here: items and their measured cell viability.
- System: HCI01 (cells of a triple-negative basal-like breast cancer xenograft)
- EXPERIMENT NOTES: cell viability (% of vehicle); higher = less cytotoxic
- STUDY CONDITIONS: 10 µM; 72 h
Please give the numeric answer without any surrounding text.

As a guide, the following entries are already answered.
{"MOLECULE": "O=C(O)c1cccnc1Nc1cccc(C(F)(F)F)c1 [Niflumic acid]", "cell viability": 135}
{"MOLECULE": "CN(C)C(=O)COC(=O)Cc1ccc(OC(=O)c2ccc(N=C(N)N)cc2)cc1.CS(=O)(=O)O [Camostat Mesilate]", "cell viability": 105}
{"MOLECULE": "CN1CCN(c2c(F)cc3c(=O)c(C(=O)O)cn4c3c2OCN4C)CC1 [Marbofloxacin]", "cell viability": 99.1}

Noted for CC1OC(OCC2OC(Oc3c(-c4ccc(O)c(O)c4)oc4cc(O)cc(O)c4c3=O)C(O)C(O)C2O)C(O)C(O)C1O (stereo not given) [Rutin] : its cell viability reads 107

Noted for O=C1Cc2cc(CCN3CCN(c4nsc5ccccc45)CC3)c(Cl)cc2N1 [Ziprasidone] : its cell viability reads 98.1

Noted for OCCN(CCO)c1nc(N2CCCCC2)c2nc(N(CCO)CCO)nc(N3CCCCC3)c2n1 [Dipyridamole] : its cell viability reads 90.2

Noted for CC(CCC(=O)O)C1CCC2C3C(O)CC4CC(O)CCC4(C)C3CC(O)C12C (stereo not given) [Cholic acid] : its cell viability reads 96

Noted for CCC1=CC2CN(C1)Cc1c([nH]c3ccccc13)C(C(=O)OC)(c1cc3c(cc1OC)N(C)C1C(O)(C(=O)OC)C(OC(C)=O)C4(CC)C=CCN5CCC31C54)C2 (stereo not given) [Vinorelbine] : its cell viability reads 100

====

- System: UCD52
- EXPERIMENT NOTES: cell viability (% of vehicle); higher = less cytotoxic
- STUDY CONDITIONS: 10 µM; 72 h
TEST READOUT: cell viability
Please give the numeric answer without any surrounding text.

As a guide, the following entries are already answered.
{"COMPOUND": "CN(C)c1ccc(O)c2c1CC1CC3C(N(C)C)C(=O)C(C(N)=O)=C(O)C3(O)C(=O)C1=C2O.Cl (stereo not drawn) [Minocycline HCl]", "cell viability": 70.7}
{"COMPOUND": "CC1(C)O[C@@H]2C[C@H]3[C@@H]4CCC5=CC(=O)C=C[C@]5(C)[C@H]4[C@@H](O)C[C@]3(C)[C@]2(C(=O)CO)O1 [Desonide]", "cell viability": 144}
{"COMPOUND": "CC12CCC3c4ccc(O)cc4CCC3C1CCC2OC(=O)CCC1CCCC1 (stereo not drawn) [Estradiol Cypionate]", "cell viability": 92}
{"COMPOUND": "COc1cc(CNC(=O)CCCCC=CC(C)C)ccc1O", "cell viability": 78.3}
{"COMPOUND": "CS(=O)(=O)O.N#CC1(c2ccc(NC(=O)c3cccnc3NCc3ccncc3)cc2)CCCC1", "cell viability": 48.5}

Noted for N#CC(=C1SCC(c2ccc(Cl)cc2Cl)S1)n1ccnc1 (stereo not drawn) : its cell viability reads 88.5

Noted for CCOC(=O)C(CCc1ccccc1)NC1CCc2ccccc2N(CC(=O)O)C1=O.Cl (stereo not drawn) [Benazepril HCl] : its cell viability reads 130

Noted for `CCCCCCCCCCCC1=C(O)C(=O)C=C(O)C1=O` : its cell viability reads 72.3

====

- Tested on: HCI16 (cells of a triple-negative basal-like breast cancer xenograft)
- EXPERIMENT NOTES: cell viability (% of vehicle); higher = less cytotoxic
- STUDY CONDITIONS: 10 µM; 72 h
Listed here: items and their measured cell viability.

As a guide, the following entries are already answered.
{"COMPOUND": "Nc1nc(=O)c2c(CCc3ccc(C(=O)NC(CCC(=O)O)C(=O)O)cc3)c[nH]c2[nH]1.O.[Na+] (stereo unspecified) [Pemetrexed disodium hemipenta hydrate]", "cell viability": 69.3}
{"COMPOUND": "CC(=O)Oc1cc2c(s1)CCN(C(C(=O)C1CC1)c1ccccc1F)C2.Cl (stereo unspecified) [Prasugrel hydrochloride]", "cell viability": 149}
{"COMPOUND": "COc1nc(N)nc2c1ncn2C1OC(CO)C(O)C1O (stereo unspecified)", "cell viability": 98.4}
{"COMPOUND": "Br.CN1CCCC1Cc1c[nH]c2ccc(CCS(=O)(=O)c3ccccc3)cc12 (stereo unspecified)", "cell viability": 113}
{"COMPOUND": "CC1=CC(=O)c2ccccc2C1=O", "cell viability": 57.6}

Record CC(C)(C(=O)O)c1ccc(C(O)CCCN2CCC(C(O)(c3ccccc3)c3ccccc3)CC2)cc1.Cl (stereo unspecified) [Fexofenadine HCl] has HCI16 cell viability equal to 120

Record `O=C(CCCN1CCN(c2ccccn2)CC1)c1ccc(F)cc1` has HCI16 cell viability equal to 151

Record `CC(O)C(=O)O.CC(O)C(=O)O.CN1CCN(c2ccc3c(c2)NC(=C2C(=O)N=c4cccc(F)c4=C2N)N3)CC1` has HCI16 cell viability equal to 44.4

Record CC(S)C(=O)NCC(=O)O (stereo unspecified) has HCI16 cell viability equal to 99.3

Record NCCC(O)C(=O)NC1CC(N)C(OC2OC(CN)C(O)C(O)C2O)C(O)C1OC1OC(CO)C(O)C(N)C1O (stereo unspecified) has HCI16 cell viability equal to 114

Record Cc1ccc(C2OC(CO)C(O)C(O)C2O)cc1Cc1ccc(-c2ccc(F)cc2)s1 (stereo unspecified) has HCI16 cell viability equal to 124

Record `Cc1cc(C#N)cc(C)c1Oc1nc(Nc2ccc(C#N)cc2)nc(N)c1Br` has HCI16 cell viability equal to 109

Record COCCCOc1cc(CC(CC(N)C(O)CC(C(=O)NCC(C)(C)C(N)=O)C(C)C)C(C)C)ccc1OC.COCCCOc1cc(CC(CC(N)C(O)CC(C(=O)NCC(C)(C)C(N)=O)C(C)C)C(C)C)ccc1OC.O=C(O)C=CC(=O)O (stereo unspecified) [Aliskiren Hemifumarate] has HCI16 cell viability equal to 148

Record NCCCC(O)(P(=O)([O-])O)P(=O)(O)O.O.O.O.[Na+] [Alendronate] has HCI16 cell viability equal to 109

Record `COC1=CC=C(/C(C2=CC=C(OC)C=C2)=C(Cl)/C3=CC=C(OC)C=C3)C=C1` has HCI16 cell viability equal to 95.5

Record `O=C(O)Cc1ccccc1Nc1c(Cl)cccc1Cl` has HCI16 cell viability equal to 127

Record CN(C)CCC=C1c2ccccc2COc2ccc(CC(=O)O)cc21.Cl [Olopatadine HCl] has HCI16 cell viability equal to 99.1

Record Cl.Nc1ncnc2nc[nH]c12 [Adenine HCl] has HCI16 cell viability equal to 147

Record CNS(=O)(=O)Cc1ccc2[nH]cc(CCN(C)C)c2c1.O=C(O)CCC(=O)O [Sumatriptan Succinate] has HCI16 cell viability equal to 120

Record Cl.Cl.NCCc1cnc[nH]1 [Histamine 2HCl] has HCI16 cell viability equal to 111
